EXPERIMENT DESCRIPTION: Terminal plasma and brain concentrations in AC-MES studies (UHPLC-MS/MS)
Assay type: in vivo, mouse
CONDITION INFO: CF-1, mouse, in vivo, 8 mg/kg, Study 2A, Lacosamide 8 mg/kg PO, 2 h; read-out: B/P Ratio
ASSAY READOUT: Kp at 2 h

Specify reported Kp at 2 h for the compound shown: COC[C@@H](NC(C)=O)C(=O)NCc1ccccc1 [Lacosamide, reference compound] 0.58

----------
EXPERIMENT DESCRIPTION: Terminal plasma and brain concentrations in AC-MES studies (UHPLC-MS/MS)
Assay type: in vivo, mouse
CONDITION INFO: CF-1, mouse, in vivo, Study 2C, analyte Lacosamide; 10 mg/kg PO 2 h + Compound A 3 mg/kg PO 0.5 h; read-out: Mean Brain
ASSAY READOUT: concentration at 2 h (µM)
The reply should contain only the number, in µM.

Specify reported concentration at 2 h for the molecule shown: COC[C@@H](NC(C)=O)C(=O)NCc1ccccc1 [Lacosamide, reference compound] 4.52

----------
EXPERIMENT DESCRIPTION: Terminal plasma and brain concentrations in AC-MES studies (UHPLC-MS/MS)
Format: in vivo, mouse
CONDITION INFO: CF-1, mouse, in vivo, 6 mg/kg, Study 2D, Lacosamide 6 mg/kg PO, 2 h; read-out: B/P Ratio
ASSAY READOUT: Kp at 2 h
Output spec: single numeric token, no unit.

Specify reported Kp at 2 h for the molecule shown: COC[C@@H](NC(C)=O)C(=O)NCc1ccccc1 [Lacosamide, reference compound] 1.15

----------
EXPERIMENT DESCRIPTION: Plasma and brain concentrations after MES testing (UHPLC-ESI-MS/MS)
CONDITION INFO: CF-1, mouse, in vivo, po, 2 mg/kg, Concentration Plasma, Compound A 2 mg/kg PO, 0.5 hr
ASSAY READOUT: concentration at 0.5 h (ng/mL)
The reply should contain only the number, in ng/mL.

Specify reported concentration at 0.5 h for the compound shown: Cc1cc(N2CCc3cc(F)ccc3C2)cc(C)c1NC(=O)CC(C)(C)C [Compound A] 80.7

----------
System: tonic hindlimb seizure following corneal stimulation in CF-1 mice
EXPERIMENT DESCRIPTION: Mouse maximal electroshock (MES) assay, 60 Hz 50 mA corneal stimulation
Assay type: in vivo
CONDITION INFO: Mus musculus; Compound A PO alone, data 2 hours after dosing; read-out: IC50 based upon brain concentration (inhibition of tonic seizures)
ASSAY READOUT: IC50 (nM)
The reply should contain only the number, in nM.

# lookup: tonic hindlimb seizure following corneal stimulation in CF-1 mice IC50, key = Cc1cc(N2CCc3cc(F)ccc3C2)cc(C)c1NC(=O)CC(C)(C)C [Compound A] 275

----------
EXPERIMENT DESCRIPTION: Plasma and brain concentrations after MES testing (UHPLC-ESI-MS/MS);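 also: brain and plasma were sampled from mice right after the efficacy test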
CONDITION INFO: CF-1, mouse, in vivo, po, 8 mg/kg, Concentration Plasma, Compound A 8 mg/kg PO single dose, tissue collection 2 hr
ASSAY READOUT: concentration at 2 h (nM)
The reply should contain only the number, in nM.

Specify reported concentration at 2 h for the compound shown: Cc1cc(N2CCc3cc(F)ccc3C2)cc(C)c1NC(=O)CC(C)(C)C [Compound A] 430

These data points were gathered from patent US20220288057A1.
